# target-entity: Kappa-type opioid receptor (Cavia porcellus, UniProt P41144)
# Sequence (P41144 whole entry): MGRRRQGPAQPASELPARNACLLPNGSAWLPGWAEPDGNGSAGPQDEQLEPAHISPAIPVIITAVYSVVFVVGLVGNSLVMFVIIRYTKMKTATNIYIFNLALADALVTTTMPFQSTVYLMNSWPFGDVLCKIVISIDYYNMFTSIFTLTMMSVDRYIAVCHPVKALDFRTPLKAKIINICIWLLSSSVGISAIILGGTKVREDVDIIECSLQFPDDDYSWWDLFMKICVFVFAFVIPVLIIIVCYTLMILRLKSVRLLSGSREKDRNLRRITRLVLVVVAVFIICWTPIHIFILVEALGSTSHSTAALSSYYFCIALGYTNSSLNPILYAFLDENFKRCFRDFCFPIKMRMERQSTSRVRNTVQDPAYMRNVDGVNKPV
The label is y for Ki below 0.3 µM and n for Ki equal to or exceeding 0.3 µM.

O=C(Cc1ccc(Cl)c(Cl)c1)N1CC2CCCC(N3CCCC3)C1CN2Cc1ccccc1 (racemic; 26) ... n
O=C(Cc1ccc(Cl)c(Cl)c1)N1CCN2CC[C@H](N3CCCC3)[C@H]1C2 (relative stereo) ... y
COC(=O)N1CC2C(N3CCCC3)CCCC1CN2C(=O)Cc1ccc(Cl)c(Cl)c1 (stereo in doubt; 9) ... y
O=C(Cc1ccc(Cl)c(Cl)c1)N1CC2CCCC(N3CCCC3)C1CN2Cc1ccccc1 (racemic; 14) ... n
COC(=O)N1CC2C(N3CCCC3)CCCC1CN2C(=O)Cc1ccc(Cl)c(Cl)c1 (racemic) ... n

**Q:** Below 0.3 µM on Ki? Entry O=C(Cc1ccc(Cl)c(Cl)c1)N1CCN2CC[C@@H](N3CCCC3)[C@H]1C2 (relative stereo)
**A:** n
